- targetSystem: glyceraldehyde-3-phosphate dehydrogenase (glycosomal GAPDH per title)
- assayRemarks: TInhibition of glyceraldehyde-3-phosphate dehydrogenase in Leishmania mexicana
Quick list: IC50 per entry.

[
  {
    "molecule": "Nc1ncnc2c1ncn2C1OC(CO)C(O)C1NCc1ccccc1 (stereo not drawn)",
    "targetSystem": "glyceraldehyde-3-phosphate dehydrogenase (glycosomal GAPDH per title)",
    "IC50": "> 10 mM"
  },
  {
    "molecule": "COc1cccc(C(=O)NC2C(O)C(CO)OC2n2cnc3c(N)nc(C)nc32)c1 (stereo not drawn)",
    "targetSystem": "glyceraldehyde-3-phosphate dehydrogenase (glycosomal GAPDH per title)",
    "IC50": "> 10 mM"
  }
]

With those in mind, consider the next molecule.
Query string: Need IC50 of CC(C)COC(=O)NC1C(O)C(CO)OC1n1cnc2c(N)ncnc21 (stereo not drawn) , thanks.
Result string: > 10 mM

---

Item-by-item account of pIC50
- targetSystem: glycosomal glyceraldehyde-3-phosphate dehydrogenase (GAPDH)
- assayRemarks: Inhibition of glyceraldehyde-3-phosphate dehydrogenase in Trypanosoma brucei
pIC50: −log10 of the molar value.

Examples from the recorded data:
[
  {
    "compound": "CC(C)COC(=O)NC1C(O)C(CO)OC1n1cnc2c(N)ncnc21 (stereo not drawn)",
    "value": "< 2.00"
  },
  {
    "compound": "Nc1ncnc2c1ncn2C1OC(CO)C(O)C1NCc1ccccc1 (stereo not drawn)",
    "value": "< 2.00"
  }
]

Now turn to the next compound.
Query string: Quick one: pIC50 for COc1cccc(C(=O)NC2C(O)C(CO)OC2n2cnc3c(N)nc(C)nc32)c1 (stereo not drawn) ?
Result string: < 2.00
